Tested on: fibroblasts (BJ)
Assay: Safety, LDH test in fibroblasts
Type: cell-based
Settings: 150 μM, 48 hours, vs Triton X-100
LDH, Fibroblasts (BJ) listing for selected compounds.

Note to self: LDH, Fibroblasts (BJ) recorded for O=C(/C=C/c1ccc(Cl)cc1)NCCCCCO was 5.37 percentage of positive control

Record summary for O=C(/C=C/c1ccccc1)NCCCCCO : reported LDH, Fibroblasts (BJ) = 4.47 percentage of positive control

The value of LDH, Fibroblasts (BJ) measured for the compound O=C(/C=C/c1ccc(Cl)cc1)NCCCO turned out to be 6.50 percentage of positive control

GET /value?item= O=C(/C=C/c1ccc(Cl)cc1)NCCO &field=LDH, Fibroblasts (BJ) returns 5.92 percentage of positive control

Lab note: Cc1ccc(/C=C/C(=O)NCCCCCO)cc1 gave LDH, Fibroblasts (BJ) of 8.75 percentage of positive control

###

Tested on: S. typhimurium TA98
Test: Ames microplate test, TA98
Type: cell-based, Salmonella typhimurium
Settings: 2.0 mM, without S9
Under this convention, true (1) denotes Increase in the number of yellow wells compared to the reference level, TA98 strictly below 0.7 and false (0) denotes Increase in the number of yellow wells compared to the reference level, TA98 at or above 0.7.

Ask: Decide: Increase in the number of yellow wells compared to the reference level, TA98 of Cc1ccc(/C=C/C(=O)NCCCCCO)cc1 strictly below 0.7?
Result: true (1)

Ask: Could you please tell me whether Increase in the number of yellow wells compared to the reference level, TA98 recorded for CC(CO)NC(=O)/C=C/c1ccc(Cl)cc1 (stereo not drawn) is less than 0.7?
Result: true (1)

Ask: Please indicate whether the reported Increase in the number of yellow wells compared to the reference level, TA98 of O=C(/C=C/c1ccccc1)NCCCCCO is strictly below 0.7.
Result: true (1)

Ask: Field: below-cutoff. Rule: recorded Increase in the number of yellow wells compared to the reference level, TA98 strictly less than 0.7. Subject: CCC(O)CNC(=O)/C=C/c1ccc(Cl)cc1 (stereo not drawn)
Result: false (0)

Ask: Find out if reported Increase in the number of yellow wells compared to the reference level, TA98 for O=C(/C=C/c1ccc(Cl)cc1)NCCCCCO is less than 0.7
Result: false (0)

Ask: Field: below-cutoff. Rule: recorded Increase in the number of yellow wells compared to the reference level, TA98 strictly less than 0.7. Subject: O=C(/C=C/c1ccccc1)NCCCCCCO
Result: false (0)

###

System: S. typhimurium TA100
Assay: Ames microplate test, TA100
Type: cell-based, Salmonella typhimurium
Details: 1.0 mM, + S9
As shown below, each of these compounds has a reported Increase in the number of yellow wells compared to the reference level, TA100 value.

Sample records with Increase in the number of yellow wells compared to the reference level, TA100:
compound	data-value
O=C(/C=C/c1ccccc1)NCCCCCCO [H-425/21]	0.69
O=C(/C=C/c1ccccc1)NCCCCCO [Compound A-133]	0.78
CCC(O)CNC(=O)/C=C/c1ccc(Cl)cc1 (stereo not shown) [Compound A-67]	0.64

Here is another compound to look at.
Kindly note the recorded Increase in the number of yellow wells compared to the reference level, TA100 for O=C(/C=C/c1ccc(Cl)cc1)NCCCCCO [Compound A-111] , which is 0.47

###

Listed next: entries and their corresponding MTT, Fibroblasts (BJ).
Tested on: fibroblasts (BJ)
Assay: Safety, MTT test in fibroblasts
Format: cell-based
Settings: 250 μM, 48 hours

# count of solved cases: 4
Cc1ccc(/C=C/C(=O)NCCCCCO)cc1 92.86 ± 4.30 % of solvent control
O=C(/C=C/c1ccc(Cl)cc1)NCCCCCO 94.51 ± 5.03 % of solvent control
O=C(/C=C/c1ccc(Cl)cc1)NCCCO 76.51 ± 1.80 % of solvent control
O=C(/C=C/c1ccccc1)NCCCCCO 82.50 ± 3.99 % of solvent control

Moving on to the next compound.
The compound O=C(/C=C/c1ccc(Cl)cc1)NCCO showed MTT, Fibroblasts (BJ) equal to 98.13 ± 2.81 % of solvent control
